Tested on: MV4-11
Conditions: 72 h
REPORTED_PROPERTY: IC50 (cell viability)

>>> print(df.to_string())
                                    compound  measurement_target  endpoint_value
 0      C1CCc2nnc(C34CC5CC(CC(C5)C3)C4)n2CC1              MV4-11         > 10 µM
 1  CC(/C=C1\SC(=S)N(CC(=O)O)C1=O)=C\c1ccccc1              MV4-11         > 10 µM
 2  CCOc1ccc(Cc2cc([C@@H]3O[C@H](CO)[C@@H](O)[C@H](O)[C@H]3O)ccc2Cl)cc1              MV4-11         > 10 µM
 3  Nc1ccn([C@@H]2O[C@H](CO)[C@@H](O)[C@@H]2O)c(=O)n1              MV4-11        0.566 µM
 4  Cl.OC[C@H]1NC[C@@H](O)[C@@H](O)[C@@H]1O [1-Deoxymannojirimycin hydrochloride]              MV4-11         > 10 µM
 5                      Clc1ccc2c(c1Cl)CNCC2              MV4-11         > 10 µM
 6  COc1c(C)c2c(c(O)c1C/C=C(\C)CCC(=O)O)C(=O)OC2              MV4-11        0.507 µM
 7          O=P(O)(O)C(O)(Cn1ccnc1)P(=O)(O)O              MV4-11         > 10 µM
 8         CC(C(=O)O)C(=O)O [Methylmalonate]              MV4-11         > 10 µM
 9    Cc1coc2c1C(=O)C(=O)c1c-2ccc2c(C)cccc12              MV4-11         > 10 µM
10                           C#Cc1cnc(O)nc1O              MV4-11         > 10 µM
11  O=C(O)c1cc2sccc2[nH]1 [4H-thieno[3,2-b]pyrrole-5-carboxylic acid]              MV4-11         > 10 µM
12  CC(C(=O)O)c1cccc(C(=O)c2ccccc2)c1 (configuration not stated)              MV4-11         > 10 µM
13  C[C@]12CC[C@H](O)CC1=CC[C@@H]1[C@@H]2CC[C@]2(C)C(c3cccnc3)=CC[C@@H]12              MV4-11         > 10 µM
14  Cc1noc2c1-c1ccccc1C(c1ccc(Cl)cc1)=N[C@H]2CC(N)=O              MV4-11        0.146 µM
15  CCCc1nn(C)c2c(O)nc(-c3cc(S(=O)(=O)N4CCN(C)CC4)ccc3OCC)nc12              MV4-11         > 10 µM
16          [N-]=[N+]=CC(=O)CC[C@H](N)C(=O)O              MV4-11         > 10 µM

Where these numbers come from: the supplement of paper PMC8671470
